Protocol Summary: Plasma pharmacokinetics of DT2216 in patients, phase 1 dose escalation
Format: in vivo, human
Study Conditions: human, plasma, iv, 0.4 mg/kg, Cycle 1 Day 22, 0.4 mg/kg IV BIW, plasma, mean (CV%), N = 4; read-out: Vdss
Outcome Measure: Vd (L/kg)

Cc1ncsc1-c1ccc([C@H](C)NC(=O)[C@@H]2C[C@@H](O)CN2C(=O)[C@@H](NC(=O)CCCCCC(=O)N2CCN(CC[C@H](CSc3ccccc3)Nc3ccc(S(=O)(=O)NC(=O)c4ccc(N5CCN(CC6=C(c7ccc(Cl)cc7)CCC(C)(C)C6)CC5)cc4)cc3S(=O)(=O)C(F)(F)F)CC2)C(C)(C)C)cc1 = 0.0729
